test: Lipid nanoparticle size and polydispersity by dynamic light scattering; type: physicochemical; conditions: LNP of lipid/DSPC/cholesterol/PEG-lipid 50:10:38.5:1.5 encapsulating hEPO mRNA
Assay Endpoint: size (nm)

# Compound, size (nm)
records = [
    ("CCCCCCCCC(CCCCCCCC)COC(=O)CCCCCN(CCO)CCN(CCCCCC(=O)OCC(CCCCCCCC)CCCCCCCC)C1CCOC1 (stereo not drawn)", 57.51),
    ("CCCCCCCCCCCOC(=O)CCCCCN(CCN(CCO)CCCCCC(=O)OCC(CCCCCC)CCCCCCCC)C1CCCCC1 (stereo not drawn)", 101.6),
    ("CCCCCCCC(=O)OCC(CCCCN(CCO)CCN(CCCCC(COC(=O)CCCCCCC)COC(=O)CCCCCCC)C1CCCCC1)COC(=O)CCCCCCC", 63.69),
    ("CCCCCCCCC(CCCCCCCC)COC(=O)CCCCCN(CCO)CCN(CCCCCC(=O)OCC(CCCCCCCC)CCCCCCCC)Cc1ccc(C)cc1", 55.02),
    ("CCCCCCCCC(CCCCCC)COC(=O)CCCCCN(CCO)CCN(CCCCC(COC(=O)CCCCCCC)COC(=O)CCCCCCC)C1CCCCCC1 (stereo not drawn)", 71.85),
]

(1) CCCCCCCCC(CCCCCCCC)COC(=O)CCCCCN(CCNc1c(N(C)C)c(=O)c1=O)CCN(CCCCCC(=O)OCC(CCCCCCCC)CCCCCCCC)C1CCC1
(2) CCCCCCCCC(CCCCCCCC)COC(=O)CCCCCN(CCO)CCN(CCCCCC(=O)OCCCCCC)C1CCCCC1
Exam item: Lab note: check whether 1 or 2 shows the higher recorded size (nm). Reply briefly: the label of your chosen item.
Marked response: 2
(2: 98.67 nm, 1: 67.44 nm)

* * *

test: Lipid nanoparticle size and polydispersity by dynamic light scattering; format: physicochemical; details: LNP of lipid/DSPC/cholesterol/PEG-lipid 50:10:38.5:1.5 encapsulating hEPO mRNA
Assay Endpoint: size (nm)

# Compound, Assay Endpoint, Measured Value
rows = [
    ("CCCCCCCCC(CCCCCCCC)COC(=O)CCCCCN(CCO)CCN(CC=C(C)C)CCOCCC(=O)OCC(CCCCCCCC)CCCCCCCC", "size (nm)", 59.28),
    ("C/C=C/CN(CCCCCC(=O)OCC(CCCCCCCC)CCCCCCCC)CCN(CCO)CCCCCC(=O)OCC(CCCCCCCC)CCCCCCCC", "size (nm)", 55.24),
]

(I) CCCCCCCCC(CCCCCCCC)COC(=O)CCCCCN(CCO)CCN(CCCCCC(=O)OCC(CCCCCCCC)CCCCCCCC)C1CCSCC1
(II) CCCCCCCCC(CCCCCC)CNC(=O)CCCCCN(CCCCCO)CCN(CCCCC(COC(=O)CCCCCCC)COC(=O)CCCCCCC)C1CCCC1 (stereo not shown)
Exam item: Could you tell me which of these two has the smaller size (nm) figure? First: I Second: II Reply briefly: the label of your chosen item.
Marked response: I

* * *

assay: Encapsulation efficiency of lipid nanoparticles, Quant-it Ribogreen RNA assay; format: physicochemical; details: LNP of lipid/DSPC/cholesterol/PEG-lipid 50:10:38.5:1.5 encapsulating hEPO mRNA
Assay Endpoint: Encapsulation Efficiency (%)

# Molecule, Encapsulation Efficiency [%]
records = [
    ("CCCCCCCC(=O)OCC(CCCCN(CCO)CCCCN(CCCCC(COC(=O)CCCCCCC)COC(=O)CCCCCCC)C1CCCCC1)COC(=O)CCCCCCC", 90.39),
    ("CCCCCCCC/C=C\\CCCCCCCC(=O)OCCCCCN(CCN(CCO)CCCCCC(=O)OCC(CCCCCCCC)CCCCCCCC)C1CCCCC1", 92.54),
    ("CCCCCCCCC(CCCCCCCC)COC(=O)CCCCCN(CCO)CCN(CCCCCC(=O)OCC(CCCCCCCC)CCCCCCCC)Cc1ccc([N+](=O)[O-])cc1", 89.8),
    ("CCCCCCCCC(CCCCCCCC)CNC(=O)CCCCCN(CCCCN(CCO)CCCCC(COC(=O)CCCCCCC)COC(=O)CCCCCCC)C1CCC1", 91.69),
    ("CCCCCCCCC(CCCCCC)CNC(=O)CCCCCCCN(CCO)CCN(CCCCC(COC(=O)CCCCCCC)COC(=O)CCCCCCC)C1CCCC1 (centres unmarked)", 88.68),
    ("CCCCCCCCCCCOC(=O)CCCCCN(CC=C(C)C)CCN(CCO)CCCCCC(=O)OCC(CCCCCCCC)CCCCCCCC", 92.21),
    ("CCCCCCCCCCCC(=O)OCCCCCN(CCN(CCO)CCCCCOC(=O)CC(CCCCCCCC)CCCCCCCC)C1CCCCC1", 91.7),
    ("CCCCCCCCC(CCCCCC)COC(=O)CCCCCN(CCO)CCN(CCCCC(COC(=O)CCCCCCC)COC(=O)CCCCCCC)C1CCCC1 (centres unmarked)", 89.36),
    ("CCCCCCCCC(CCCCCCCC)COC(=O)CCCCCN(CCN(CCO)CCOCCC(=O)OCC(CCCCCCCC)CCCCCCCC)C1CCCCC1", 92.05),
    ("CCCCCCCCOC(CCCCCN(CCO)CCN(CCCCCC(=O)NCC(CCCCCC)CCCCCCCC)C1CCCCCC1)OCCCCCCCC (centres unmarked)", 88.47),
    ("CCCCCCCCC(CCCCCCCC)COC(=O)CCCCCN(CCO)CCN(CCCCCC(=O)OCC(CCCCCCCC)CCCCCCCC)CC1CCCC1", 90.0),
    ("CCCCC/C=C\\C/C=C\\CCCCCCCC(=O)OCCCCCN(CCN(CCO)CCCCCC(=O)OCC(CCCCCCCC)CCCCCCCC)C1CCCCC1", 91.83),
    ("CCCCCCCCCCCC(=O)OCCCCCN(CCN(CCO)CCOCCOC(=O)CC(CCCCCCCC)CCCCCCCC)C1CCC1", 88.12),
    ("CCCCCCCCC(CCCCCCCC)CNC(=O)CCCCCN(CCO)CCN(CCCCCC(=O)NCC(CCCCCCCC)CCCCCCCC)C1CCCC1", 89.5),
]
